- System: Human immunodeficiency virus 1
- test: Antiviral activity against saquinavir-resistant HIV1 in MT4 cells assessed as inhibition of p24 Gag protein expression by MTT assay
- Format: functional, organism-based
- details: Human immunodeficiency virus 1, MT4
readoutLabel: EC50 (nM)

compound: COC(=O)N[C@H](C(=O)N[C@@H](Cc1ccccc1)[C@@H](O)CN(Cc1ccc(-c2ccccn2)cc1)NC(=O)[C@@H](NC(=O)OC)C(C)(C)C)C(C)(C)C [ATAZANAVIR]
readoutLabel: EC50
censoringQualifier: =
numericReadout: 326
--
compound: CC(C)(C)NC(=O)[C@@H]1CN(Cc2cccnc2)CCN1C[C@@H](O)C[C@@H](Cc1ccccc1)C(=O)N[C@H]1c2ccccc2C[C@H]1O
readoutLabel: EC50
censoringQualifier: >
numericReadout: 1000
--
compound: CC(C)CN(C[C@@H](O)[C@H](Cc1ccccc1)NC(=O)O[C@H]1CO[C@H]2OCC[C@H]21)S(=O)(=O)c1ccc2c(c1)OCO2
readoutLabel: EC50
censoringQualifier: =
numericReadout: 6

* * *

- test: Cytotoxicity against human MT2 cells assessed as inhibition of p24 Gag protein expression by MTT assay
- Assay type: cell-based
readoutLabel: CC50 (µM)

molecule: Cc1c(O)cccc1C(=O)N[C@@H](CSc1ccccc1)[C@H](O)CN1C[C@H]2CCCC[C@H]2C[C@H]1C(=O)NC(C)(C)C
censoringQualifier: =
numericReadout: 8.1
--
molecule: CC(C)(C)NC(=O)[C@@H]1CN(Cc2cccnc2)CCN1C[C@@H](O)C[C@@H](Cc1ccccc1)C(=O)N[C@H]1c2ccccc2C[C@H]1O
censoringQualifier: =
numericReadout: 69.8
--
molecule: Cc1cccc(C)c1OCC(=O)N[C@@H](Cc1ccccc1)[C@@H](O)C[C@H](Cc1ccccc1)NC(=O)[C@H](C(C)C)N1CCCNC1=O [LOPINAVIR]
censoringQualifier: >
numericReadout: 100
--
molecule: CC(C)CN(C[C@@H](O)[C@H](Cc1ccccc1)NC(=O)O[C@H]1CO[C@H]2OCC[C@H]21)S(=O)(=O)c1ccc(N)cc1
censoringQualifier: =
numericReadout: 83.1
--
molecule: CC(C)CN(C[C@@H](O)[C@H](Cc1ccccc1)NC(=O)O[C@H]1CO[C@H]2OCC[C@H]21)S(=O)(=O)c1ccc2c(c1)OCO2
censoringQualifier: =
numericReadout: 35.7
